Reported IC50 values follow for various molecules
- ASSAY_TARGET: human TLR7 (Homo sapiens)
- Sequence (Q9NYK1 27-1049): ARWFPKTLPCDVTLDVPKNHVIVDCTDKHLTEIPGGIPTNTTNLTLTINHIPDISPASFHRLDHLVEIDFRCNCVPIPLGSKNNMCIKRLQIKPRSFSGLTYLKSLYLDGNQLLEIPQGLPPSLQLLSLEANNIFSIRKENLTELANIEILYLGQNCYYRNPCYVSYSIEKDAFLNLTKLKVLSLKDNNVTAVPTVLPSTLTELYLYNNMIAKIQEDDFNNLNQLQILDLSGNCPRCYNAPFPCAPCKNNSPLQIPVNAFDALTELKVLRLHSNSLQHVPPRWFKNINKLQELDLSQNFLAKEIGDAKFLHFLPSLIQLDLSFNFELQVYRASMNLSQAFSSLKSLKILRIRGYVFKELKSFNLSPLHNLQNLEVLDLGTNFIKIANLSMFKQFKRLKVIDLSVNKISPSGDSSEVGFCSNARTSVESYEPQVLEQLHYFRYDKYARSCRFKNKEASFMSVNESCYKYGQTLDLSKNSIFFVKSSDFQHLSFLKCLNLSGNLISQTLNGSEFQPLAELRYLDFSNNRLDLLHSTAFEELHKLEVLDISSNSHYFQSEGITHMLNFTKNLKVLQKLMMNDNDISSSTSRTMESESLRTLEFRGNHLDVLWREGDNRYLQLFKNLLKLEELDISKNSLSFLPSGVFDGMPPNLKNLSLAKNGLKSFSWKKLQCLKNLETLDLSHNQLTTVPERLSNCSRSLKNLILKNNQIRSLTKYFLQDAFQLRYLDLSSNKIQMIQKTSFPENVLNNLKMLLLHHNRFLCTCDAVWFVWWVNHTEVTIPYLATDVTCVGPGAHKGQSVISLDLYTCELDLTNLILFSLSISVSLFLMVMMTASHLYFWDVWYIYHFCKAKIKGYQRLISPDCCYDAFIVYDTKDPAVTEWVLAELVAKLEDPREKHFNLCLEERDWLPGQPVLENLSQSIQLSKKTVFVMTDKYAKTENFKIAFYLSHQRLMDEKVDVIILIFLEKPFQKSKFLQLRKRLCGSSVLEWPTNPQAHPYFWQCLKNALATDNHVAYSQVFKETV
- ASSAY_EXPLANATION: TLR7 inhibition reporter assay (HEK-Blue cells, secreted embryonic alkaline phosphatase reporter)
- RECORDED_CONDITIONS: HEK-Blue cells overexpressing human TLR7, stimulated with gardiquimod 7.5 μM; read-out: TLR 7 IC50

Past entries and their recorded results:
>>> recorded_measurement("Cc1cc(C2CCN(C3CCCN(C4CCOCC4)CC3)CC2)cc2c1nc(-c1ccc(S(C)(=O)=O)cc1)n2C (single isomer, unassigned) [Example 307]")
"20.5 µM"
>>> recorded_measurement("COCCN1CCC(N2CCC(c3cc(F)c4c(c3)nc(-c3ccc(S(C)(=O)=O)cc3)n4C)CC2)CC1 [Example 208]")
"> 50 µM"

// switching to the query molecule
Task: Any idea what IC50 was measured for Cc1cc(C2CCN(C3CC4CCC(C3)N4C3COC3)CC2)cc2c1nc(-c1ccc(S(C)(=O)=O)cc1)n2C (single isomer, unassigned) [Example 159] ?
Result: > 25 µM
